# RUN DESCRIPTION: Agonistic activity of quinpirole stimulation of mitogenesis in human Dopamine receptor D3 transfected CHO cells
TEST READOUT: EC50

SMILES CODE: O=C(NC/C=C/CN1CCN(c2cccc(Cl)c2Cl)CC1)c1ccccc1
RESULT: > 10 µM

###

# RUN DESCRIPTION: Agonistic activity of quinpirole stimulation of mitogenesis in human dopamine D3 transfected CHO cells

SMILES CODE: O=C(NC/C=C\CN1CCN(c2cccc(Cl)c2Cl)CC1)c1ccccc1
EC50: > 10 µM
